Species: Rattus norvegicus
Experiment: In Vitro superoxide scavenging activity by the analysis of variance method at concentration of 0.1 x 10E4 M
Assay type: functional
experimentalEndpoint: inhibition

Which value of inhibition has been reported for Oc1ccc(-c2nn[nH]n2)cc1O in the records? 6.9%

Which value of inhibition has been reported for Oc1cc(-c2nn[nH]n2)cc(O)c1O in the records? 16%

Which value of inhibition has been reported for O=C(O)Cn1nnc(-c2cc(O)c(O)c(O)c2)n1 in the records? 15.3%

Which value of inhibition has been reported for O=C(O)CSc1nnc(-c2cc(O)c(O)c(O)c2)n1-c1ccccc1 in the records? 16.7%

Which value of inhibition has been reported for O=C(O)CSc1nnc(-c2ccc(O)c(O)c2)n1-c1ccccc1 in the records? 8.3%

Moving on to the next compound.
Which value of inhibition has been reported for O=C(O)Cn1nnc(-c2ccc(O)c(O)c2)n1 in the records? 0%
